Values compiled from the supplement of paper PMC6555819.

# key: entry, value: PBM binding z-score
System: PPARg:RXRa IVT, anti-PPARg (NR concentration 270 nM, RXRa partner concentration 90 nM)
Test: PBM binding z-score (relative to random genomic background probes); higher = stronger binding; sequences stand for … in GC…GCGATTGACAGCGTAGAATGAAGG
Respond with the number and no other words.

Worked examples, 3 sequences total:
[[record]]
residue_codes = "TCTAGTTGGTCAAAGGTCACACTCTCGAAATGCG"
readout_number = 6.05

[[record]]
residue_codes = "CCTACTGGGCCTAAAAGGTCATTGATGCCGATAA"
readout_number = 1.85

[[record]]
residue_codes = "TCTAGCAGGCAAGAGGGTCACTCAAGAGGTACGG"
readout_number = 0.0219


PBM binding z-score lookup needed for CCGAATGGGGCAGAAAGGTTACCATACCATCCGG , thanks.
1

Requested field: PBM binding z-score. Item: TCTAGCAGGCCAGAGGGTCACGCAAGAGGTACGG
1.31

So what does the record say about PBM binding z-score for TAGCCTAGGTCATGCGTGCCAGTATAGTGTCGGC ?
3.12
